- measurementTarget: acetyl-CoA synthase (ACS) (Carboxydothermus hydrogenoformans, UniProt Q3ACS4)
- Construct: CODH–ACS complex, heterologously expressed in E. coli; with CO-dehydrogenase (CODH)
- Sequence (Q3ACS4 1-732): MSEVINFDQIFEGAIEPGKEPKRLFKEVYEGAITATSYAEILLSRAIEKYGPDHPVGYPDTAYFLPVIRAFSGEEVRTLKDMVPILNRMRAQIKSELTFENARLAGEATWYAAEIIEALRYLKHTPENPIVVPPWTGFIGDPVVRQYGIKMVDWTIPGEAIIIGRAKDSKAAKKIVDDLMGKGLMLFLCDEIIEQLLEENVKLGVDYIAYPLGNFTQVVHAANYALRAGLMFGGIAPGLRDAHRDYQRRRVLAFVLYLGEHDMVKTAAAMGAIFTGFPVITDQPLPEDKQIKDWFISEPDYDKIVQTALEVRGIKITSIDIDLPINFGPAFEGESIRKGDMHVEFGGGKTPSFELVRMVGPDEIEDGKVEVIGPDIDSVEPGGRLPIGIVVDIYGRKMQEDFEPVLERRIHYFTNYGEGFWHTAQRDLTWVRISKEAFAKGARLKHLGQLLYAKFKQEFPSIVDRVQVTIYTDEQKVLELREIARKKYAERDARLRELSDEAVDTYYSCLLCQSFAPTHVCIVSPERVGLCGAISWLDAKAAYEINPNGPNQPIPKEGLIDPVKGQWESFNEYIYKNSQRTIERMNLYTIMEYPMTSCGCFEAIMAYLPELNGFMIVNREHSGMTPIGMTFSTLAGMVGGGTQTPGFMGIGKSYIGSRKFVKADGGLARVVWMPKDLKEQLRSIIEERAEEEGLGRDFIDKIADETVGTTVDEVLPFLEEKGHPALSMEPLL
- protocolSummary: ITC of CODH–ACS complex with […] Ti(III)–EDTA, […] °C
reportedProperty: Kd

Would you kindly share the measured Kd for CC(C)(COP(=O)(O)OP(=O)(O)OC[C@H]1O[C@@H](n2cnc3c(N)ncnc32)[C@H](O)[C@@H]1OP(=O)(O)O)[C@@H](O)C(=O)NCCC(=O)NCCS ? < 88 µM

All values here come from paper PMC12289521.
